# system-under-test: Muscarinic acetylcholine receptor M2 (Homo sapiens, UniProt P08172); note: assay procedure not described here
# Sequence (P08172 whole entry): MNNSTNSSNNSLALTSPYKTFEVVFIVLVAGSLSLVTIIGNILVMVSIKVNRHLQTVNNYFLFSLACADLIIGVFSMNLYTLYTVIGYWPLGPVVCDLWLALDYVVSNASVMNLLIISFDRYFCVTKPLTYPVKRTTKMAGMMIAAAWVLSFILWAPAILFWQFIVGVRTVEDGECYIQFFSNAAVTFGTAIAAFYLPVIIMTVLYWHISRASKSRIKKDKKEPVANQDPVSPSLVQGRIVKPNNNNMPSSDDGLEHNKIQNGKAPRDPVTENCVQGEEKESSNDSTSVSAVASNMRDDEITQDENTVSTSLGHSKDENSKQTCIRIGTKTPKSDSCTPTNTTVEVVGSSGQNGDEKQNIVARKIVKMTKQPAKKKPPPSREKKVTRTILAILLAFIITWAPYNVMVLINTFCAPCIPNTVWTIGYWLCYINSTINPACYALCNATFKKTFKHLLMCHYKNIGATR
# Format: functional, cell-based
value-kind: AC50

{"molecule": "Cc1onc(-c2c(F)cccc2Cl)c1C(=O)N[C@@H]1C(=O)N2[C@@H]1SC(C)(C)[C@@H]2C(=O)O [FLOXACILLIN]", "value-kind": "AC50", "measured": "> 30 µM"}
{"molecule": "O=S1(=O)CCN(CN2CCS(=O)(=O)NC2)CN1 [TAUROLIDINE]", "value-kind": "AC50", "measured": "> 30 µM"}
{"molecule": "COc1cc2[nH]c(C)c(CCN3CCN(c4ccccc4)CC3)c2cc1OC [OXYPERTINE]", "value-kind": "AC50", "measured": "> 30 µM"}
{"molecule": "CCOC(=O)C(C)(C)Oc1ccc(Cl)cc1 [CLOFIBRATE]", "value-kind": "AC50", "measured": "> 10 µM"}
{"molecule": "CCCCOc1ccc(C(=O)CCN2CCCCC2)cc1 [DYCLONINE]", "value-kind": "AC50", "measured": "> 10 µM"}
{"molecule": "CC(C)N(CCCCOCC(=O)O)c1cnc(-c2ccccc2)c(-c2ccccc2)n1", "value-kind": "AC50", "measured": "> 30 µM"}
{"molecule": "Cc1cccc(C)c1NC(=O)CC12CCCN1CCC2 [PILSICAINIDE]", "value-kind": "AC50", "measured": "> 30 µM"}
{"molecule": "CC1(C)S[C@@H]2[C@H](NC(=O)C(C(=O)O)c3ccccc3)C(=O)N2[C@H]1C(=O)O (some centres undefined) [CARBENICILLIN]", "value-kind": "AC50", "measured": "> 30 µM"}
{"molecule": "NNC(=O)c1ccncc1 [ISONIAZID]", "value-kind": "AC50", "measured": "> 30 µM"}

Numbers sourced from ChEMBL document CHEMBL5291721.
